Some compounds, each annotated with its measured pIC50.
- Experimental target: human NOX4 (Homo sapiens)
- Construct: membrane fraction used
- Sequence (Q9NPH5 1-578): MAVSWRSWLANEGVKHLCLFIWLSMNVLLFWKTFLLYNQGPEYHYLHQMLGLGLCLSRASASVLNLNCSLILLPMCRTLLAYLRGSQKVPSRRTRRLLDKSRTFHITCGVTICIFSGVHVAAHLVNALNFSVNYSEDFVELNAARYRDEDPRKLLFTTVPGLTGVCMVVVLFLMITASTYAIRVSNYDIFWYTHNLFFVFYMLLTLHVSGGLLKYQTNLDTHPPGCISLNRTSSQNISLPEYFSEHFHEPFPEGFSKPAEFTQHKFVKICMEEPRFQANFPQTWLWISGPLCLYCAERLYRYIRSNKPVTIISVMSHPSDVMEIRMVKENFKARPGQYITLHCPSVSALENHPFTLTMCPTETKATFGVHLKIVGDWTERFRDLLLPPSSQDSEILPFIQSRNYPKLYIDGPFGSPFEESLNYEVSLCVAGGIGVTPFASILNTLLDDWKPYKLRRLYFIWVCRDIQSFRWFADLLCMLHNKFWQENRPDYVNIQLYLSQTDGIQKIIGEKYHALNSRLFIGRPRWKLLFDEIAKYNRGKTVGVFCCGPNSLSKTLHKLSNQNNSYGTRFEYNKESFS
- Sequence (P13498 1-195 partner): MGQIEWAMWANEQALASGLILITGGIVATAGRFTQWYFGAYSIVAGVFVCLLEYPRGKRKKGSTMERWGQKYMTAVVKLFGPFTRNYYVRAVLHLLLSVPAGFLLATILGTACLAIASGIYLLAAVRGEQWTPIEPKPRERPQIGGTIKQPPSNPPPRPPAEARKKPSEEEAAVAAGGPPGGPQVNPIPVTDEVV
- Method description: Cell free membrane based in vitro NOX4 assay: H2O2 production by membranes expressing human NOX4, measured with Amplex Red
- Condition set: class symbols
pIC50: −log10 of the molar value. Counter-ions that a name gives are not always drawn.
Experimental readout: pIC50

| Compound | Experimental target | Experimental readout | Assay result |
| --- | --- | --- | --- |
| CCn1nc(C(F)F)c2c(=O)c(O)c(-c3c(F)cccc3F)[nH]c21 [Example 99] | human NOX4 (Homo sapiens) | pIC50 | < 6.82 |
| COc1ccc(-c2[nH]c3c(c(C)nn3-c3ccc(F)c(F)c3)c(=O)c2O)c(F)c1 [Example 39] | human NOX4 (Homo sapiens) | pIC50 | 6.82 to 7.00 |
| Cc1nn(C2CC2)c2[nH]c(-c3c(F)cccc3Cl)c(O)c(=O)c12 [Example 124] | human NOX4 (Homo sapiens) | pIC50 | < 6.82 |
| CCc1nn(C)c2[nH]c(-c3c(F)cccc3F)c(O)c(=O)c12 [Example 71] | human NOX4 (Homo sapiens) | pIC50 | > 7.30 |
| Cc1nn(CCN(C)C)c2[nH]c(-c3c(F)cccc3F)c(O)c(=O)c12 [Example 89] | human NOX4 (Homo sapiens) | pIC50 | 7.00 to 7.30 |
| COc1ccc(-c2[nH]c3c(c(C)nn3C)c(=O)c2O)c(F)c1 [Example 19] | human NOX4 (Homo sapiens) | pIC50 | 7.00 to 7.30 |
| Cn1nc(CO)c2c(=O)c(O)c(-c3c(F)cccc3F)[nH]c21 [Example 188] | human NOX4 (Homo sapiens) | pIC50 | 6.82 to 7.00 |
| Cc1nn(C2CCOCC2)c2[nH]c(-c3c(F)cccc3F)c(O)c(=O)c12 [Example 128] | human NOX4 (Homo sapiens) | pIC50 | 7.00 to 7.30 |
| Cn1nc(C(F)(F)F)c2c(=O)c(O)c(-c3ccc(-n4ccnc4)cc3)[nH]c21 [Example 54] | human NOX4 (Homo sapiens) | pIC50 | 6.82 to 7.00 |
| Cc1nn(CCN2CCCCC2)c2[nH]c(-c3ccccc3Cl)c(O)c(=O)c12 [Example 149] | human NOX4 (Homo sapiens) | pIC50 | < 6.82 |
| Cc1nn(-c2ccccn2)c2[nH]c(-c3c(F)cccc3F)c(O)c(=O)c12 [Example 36] | human NOX4 (Homo sapiens) | pIC50 | < 6.82 |
| CCc1nn(CCN2CCOCC2)c2[nH]c(-c3ccccc3Cl)c(O)c(=O)c12 [Example 238, hydrochloride] | human NOX4 (Homo sapiens) | pIC50 | < 6.82 |
| O=c1c(O)c(-c2ccccc2Cl)[nH]c2c1cnn2-c1ccc(F)cc1 [Example 10] | human NOX4 (Homo sapiens) | pIC50 | > 7.30 |
| Cc1nn(-c2ccc(F)cc2Cl)c2[nH]c(-c3c(F)cccc3F)c(O)c(=O)c12 [Example 139] | human NOX4 (Homo sapiens) | pIC50 | 7.00 to 7.30 |
| Cc1nn(CCN2CCOCC2)c2[nH]c(-c3cccc(C(F)(F)F)c3F)c(O)c(=O)c12 [Example 153] | human NOX4 (Homo sapiens) | pIC50 | < 6.82 |
| O=c1c(O)c(-c2c(F)cccc2F)[nH]c2c1c(CO)nn2CC1CCOCC1 [Example 215] | human NOX4 (Homo sapiens) | pIC50 | 6.82 to 7.00 |
| Cc1nn(CCN2CCOCC2)c2[nH]c(-c3ccccc3Cl)c(O)c(=O)c12 [Example 2] | human NOX4 (Homo sapiens) | pIC50 | 6.82 to 7.00 |
